src = patent US20050032042A1

# conditions used: human
quantity name: r, free plasma vs total plasma

- molecule: "Cc1cn([C@H]2C=C[C@@H](CO)O2)c(=O)[nH]c1=O [Stavudine]"
  r, free plasma vs total plasma: 0.924
- molecule: "O=c1[nH]cnc2c1ncn2[C@H]1CC[C@@H](CO)O1 [Didanosine]"
  r, free plasma vs total plasma: 0.749
- molecule: "Cc1ccnc2c1NC(=O)c1cccnc1N2C1CC1 [Nevirapine]"
  r, free plasma vs total plasma: 0.909
- molecule: "Cc1cn([C@H]2C[C@H](N=[N+]=[N-])[C@@H](CO)O2)c(=O)[nH]c1=O [Zidovudine]"
  r, free plasma vs total plasma: 0.907
